Listed compounds paired with reported inhibition at 1.25 µg/mL
- Test system: K562
- test_summary: Cytotoxicity against chronic myelogenous leukemia cell line K-562 was determined by measuring [3H]-thymidine incorporation at a concentration of 1.25 ug/mL after 5 h
- Type: functional
- setup_conditions: Homo sapiens
experimental_endpoint: inhibition at 1.25 µg/mL

compound	experimental_endpoint	result
O=c1nc2c(ncn2Cc2ccccc2)c(C#CC2CC2)n1Cc1ccccc1	inhibition at 1.25 µg/mL	98%
O=C1Nc2c(ncn2Cc2ccccc2)C(C#CC2CC2)N1Cc1ccccc1 (stereo unspecified)	inhibition at 1.25 µg/mL	35%
O=C1Nc2c(ncn2Cc2ccccc2)C(C#CC2CC2)(C(F)(F)F)N1Cc1ccccc1 (stereo unspecified)	inhibition at 1.25 µg/mL	66%
O=C1Nc2c(ncn2Cc2ccccc2)C(c2ccccc2)N1Cc1ccccc1 (stereo unspecified)	inhibition at 1.25 µg/mL	9.1%
O=c1nc2c(cn1Cc1ccccc1)ncn2Cc1ccccc1	inhibition at 1.25 µg/mL	4.4%
O=C1Nc2c(ncn2Cc2ccccc2)C(C(F)(F)F)N1Cc1ccccc1 (stereo unspecified)	inhibition at 1.25 µg/mL	15.4%
